Each recorded value in this set is attributed to PubChem BioAssay.

experimental-protocol: Cy5 fluorescence interference with SSB-bound oligo, artefact control for HCV NS3 helicase inhibitor project, biochemical, NIH Clinical Collection, E. coli SSB (AID 743268)
fluorescence ratio below 1 gives no (0); fluorescence ratio at or above it gives yes (1).

Assess whether reported fluorescence ratio for CCOC(=O)[C@@H](CCc1ccccc1)N[C@@H](C)C(=O)N1CCC[C@H]1C(=O)O sits at 1 or higher.
yes (1)

Assess whether reported fluorescence ratio for CC(=O)CCCCn1cnc2c1c(=O)n(C)c(=O)n2C sits at 1 or higher.
yes (1)

Assess whether reported fluorescence ratio for CC(C)CC(NC(=O)C(COC(C)(C)C)NC(=O)C(Cc1ccc(O)cc1)NC(=O)C(CO)NC(=O)C(Cc1c[nH]c2ccccc12)NC(=O)C(Cc1cnc[nH]1)NC(=O)C1CCC(=O)N1)C(=O)N[C@@H](CCCN=C(N)N)C(=O)N1CCCC1C(=O)NNC(N)=O (some centres undefined) sits at 1 or higher.
no (0)

Assess whether reported fluorescence ratio for Cc1cc(=O)oc2cc(NC(=O)C3CCC(=O)N3)ccc12 (centres undefined) sits at 1 or higher.
no (0)

Assess whether reported fluorescence ratio for COC(=O)Nc1nc2ccc(C(=O)c3ccc(F)cc3)cc2[nH]1 sits at 1 or higher.
yes (1)

Assess whether reported fluorescence ratio for CC(=CCC1=C(C)C(=O)c2ccccc2C1=O)CCCC(C)CCCC(C)CCCC(C)C (centres undefined) sits at 1 or higher.
yes (1)

Assess whether reported fluorescence ratio for OC[C@H]1O[C@@H](n2cnc3c(NC4CCCC4)nc(Cl)nc32)[C@@H](O)C1O (some centres undefined) sits at 1 or higher.
no (0)

---

Test system: Aerobactin synthetase IucA (Klebsiella pneumoniae)
experimental-protocol: IucA aerobactin synthetase inhibitors, biochemical, Tocris library, absorbance (AID 1345561);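 further: 100% = enzyme without compound and 0% = no enzyme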
experimental-setup: purified IucA enzyme assay, absorbance (OD) read-out; active compounds read low; concentration not given here
For each entry below, report its remaining activity value.
Give the quantity in %, number only.

Provide the documented remaining activity with Aerobactin synthetase IucA (Klebsiella pneumoniae) as the system for O=C(Nc1ccccc1)c1cc([N+](=O)[O-])ccc1Cl
120

Provide the documented remaining activity with Aerobactin synthetase IucA (Klebsiella pneumoniae) as the system for O=C1c2ccccc2-c2n[nH]c3cccc1c23
103

Provide the documented remaining activity with Aerobactin synthetase IucA (Klebsiella pneumoniae) as the system for O=C(O)C1=CCCN(CCON=C(c2ccccc2)c2ccccc2)C1
122

Provide the documented remaining activity with Aerobactin synthetase IucA (Klebsiella pneumoniae) as the system for O=C1NC(=O)C(c2ccccc2[N+](=O)[O-])=C1Nc1ccc(O)c(Cl)c1
112

Provide the documented remaining activity with Aerobactin synthetase IucA (Klebsiella pneumoniae) as the system for CC(=O)NNC(=O)N1Cc2ccccc2Oc2ccc(Cl)cc21
100

Provide the documented remaining activity with Aerobactin synthetase IucA (Klebsiella pneumoniae) as the system for CCOC(=O)c1ccc(OC(=O)CCCCCN=C(N)N)cc1
124

Provide the documented remaining activity with Aerobactin synthetase IucA (Klebsiella pneumoniae) as the system for COCc1nc2c([nH]1)c(=O)n(C)c(=O)n2CC(C)C
101

Provide the documented remaining activity with Aerobactin synthetase IucA (Klebsiella pneumoniae) as the system for CC[C@H](NC(=O)c1c(C)c(-c2ccccc2)nc2ccccc12)c1ccccc1
110

Provide the documented remaining activity with Aerobactin synthetase IucA (Klebsiella pneumoniae) as the system for CC1CCN(CC[C@H]2CCCN2S(=O)(=O)c2cccc(O)c2)CC1
106

Provide the documented remaining activity with Aerobactin synthetase IucA (Klebsiella pneumoniae) as the system for CC(C)C[C@@H](C(=O)N[C@H](C(=O)OC1CCCC1)c1ccccc1)[C@H](O)C(=O)NO
125

Provide the documented remaining activity with Aerobactin synthetase IucA (Klebsiella pneumoniae) as the system for Fc1cccc(/C=N/N=C/c2cccc(F)c2)c1
113

---

System: F380Y/beta4
experimental-protocol: modulators of BK channel variants, profiling panel, selectivity assay, cell-based, U2OS BacMam, thallium flux, beta subunits (AID 1259406);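 further: initial slope of Thallos dye fluorescence rise after thallium is added; log ratio against the mean of 0.3% DMSO vehicle wells on the same plate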
experimental-setup: at 30 µM
Please assign false (0) whenever log fold change Tl+ flux is at or above 0.03, and true (1) whenever it is below.

Strictly below 0.03 in log fold change Tl+ flux? CC(c1ccccc1)n1c(SCc2cc(=O)oc3cc(O)ccc23)n[nH]c1=O (centres undefined)
false (0)

Strictly below 0.03 in log fold change Tl+ flux? O=C1c2c(O)cc(O)cc2O[C@H](c2ccc(O)c(O)c2)[C@H]1O
true (1)

Strictly below 0.03 in log fold change Tl+ flux? O=C(O)Cc1ccc([N+](=O)[O-])cc1
true (1)

Strictly below 0.03 in log fold change Tl+ flux? CC(C)(C)NC(=O)NCCO
true (1)

Strictly below 0.03 in log fold change Tl+ flux? Cc1nc(-c2ccccc2)sc1C(=O)NC(=O)c1ccccc1O
true (1)

Strictly below 0.03 in log fold change Tl+ flux? CC(C)(C)NC(=S)NNc1c(Cl)cncc1Cl
true (1)

Strictly below 0.03 in log fold change Tl+ flux? CSc1nc(N)nc(-c2cccs2)n1
true (1)

Strictly below 0.03 in log fold change Tl+ flux? O=S(=O)(CCN1CCN(Cc2ccccc2)CC1)c1ccc(F)cc1
true (1)

Strictly below 0.03 in log fold change Tl+ flux? CC1CNc2c(cccc2S(=O)(=O)N[C@@H](CCCN=C(N)N)C(=O)N2CC[C@@H](C)C[C@@H]2C(=O)O)C1 (some centres undefined)
true (1)

Strictly below 0.03 in log fold change Tl+ flux? Cc1c(Br)sc2sc(-c3ccnc(SCc4ccccc4)n3)c(C)c12
true (1)

Strictly below 0.03 in log fold change Tl+ flux? Cc1ccc(I)cc1[N+](=O)[O-]
true (1)

Strictly below 0.03 in log fold change Tl+ flux? Cc1cc(C)c2cc(C(=O)Nc3ccccc3SCc3cccc(Cl)c3F)[nH]c2c1
true (1)

Strictly below 0.03 in log fold change Tl+ flux? Cc1c(C(=O)Nc2ccc(N3CCOCC3)c(Cl)c2)cnn1-c1ccc(F)cc1
true (1)

Strictly below 0.03 in log fold change Tl+ flux? CCOC(=O)C(C)Oc1ccc(NS(=O)(=O)c2cc(OC)ccc2OC)cc1Cl (centres undefined)
true (1)

Strictly below 0.03 in log fold change Tl+ flux? CCOC(=O)c1c(N)n(-c2ccc(Cl)cc2)c2nc3ccccc3nc12
true (1)

Strictly below 0.03 in log fold change Tl+ flux? Cc1nnc(SCC2=C(C(=O)O)N3C(=O)C(NC(=O)Cn4cnnn4)C3SC2)s1 (centres undefined)
true (1)

Strictly below 0.03 in log fold change Tl+ flux? c1ccc(-c2ccccn2)nc1
false (0)

Strictly below 0.03 in log fold change Tl+ flux? CC(C)c1ccc(NC(=S)NC2CC3CC2C2C=CCC32)cc1 (centres undefined)
true (1)

Strictly below 0.03 in log fold change Tl+ flux? CN(C)c1ccc(C=NNC(N)=S)c(Cl)c1
false (0)

Strictly below 0.03 in log fold change Tl+ flux? O=C1C(=Cc2cc(-c3ccccc3)c(C(F)(F)F)s2)CSc2ccc(Cl)cc21
true (1)

Strictly below 0.03 in log fold change Tl+ flux? O=C1CN(N=Cc2ccc([N+](=O)[O-])o2)C(=O)N1
true (1)

Strictly below 0.03 in log fold change Tl+ flux? CC1CC2C3CCC4=CC(=O)C=CC4(C)C3(F)C(O)CC2(C)C1(O)C(=O)CO (centres undefined)
true (1)

Strictly below 0.03 in log fold change Tl+ flux? C[C@H]1O[C@H](O[C@H]2[C@H](O)[C@@H](O)[C@@H](O[C@H]3[C@H](O)[C@@H](O)C(O)O[C@@H]3CO)O[C@@H]2CO)[C@H](O)[C@@H](O)[C@@H]1N[C@H]1C=C(CO)[C@@H](O)[C@H](O)[C@H]1O (some centres undefined)
false (0)

Strictly below 0.03 in log fold change Tl+ flux? COc1cc(C(=O)Nc2ccccc2C(=O)NCCc2ccccn2)cc(OC)c1OC
false (0)

Strictly below 0.03 in log fold change Tl+ flux? CCOC(=O)C1CCC(C(=O)OCC)N1C(=O)Nc1ccc(Cl)cc1 (centres undefined)
true (1)

Strictly below 0.03 in log fold change Tl+ flux? C1=CC=CC(C2C=CC=CC=C2)C=C1
false (0)

Strictly below 0.03 in log fold change Tl+ flux? CCC(C)n1ncn(-c2ccc(N3CCN(c4ccc(OCC5COC(Cn6cncn6)(c6ccc(Cl)cc6Cl)O5)cc4)CC3)cc2)c1=O (centres undefined)
true (1)

Strictly below 0.03 in log fold change Tl+ flux? CC(=O)OCC(OC(C)=O)C(OC(C)=O)C(OC(C)=O)C(C#N)OC(C)=O (centres undefined)
false (0)

Strictly below 0.03 in log fold change Tl+ flux? O=C(CN1c2ccccc2Sc2ccccc21)NN=Cc1ccco1
true (1)

Strictly below 0.03 in log fold change Tl+ flux? Cc1cc(-c2nn(C)c(=O)c3ccccc23)cc(C)c1O
true (1)

Strictly below 0.03 in log fold change Tl+ flux? CC(C)NCC(O)c1ccc(NS(C)(=O)=O)cc1 (centres undefined)
true (1)

Strictly below 0.03 in log fold change Tl+ flux? O=C(c1ccc(OCCN2CCCCC2)cc1)c1c(-c2ccc(O)cc2)sc2cc(O)ccc12
false (0)

Strictly below 0.03 in log fold change Tl+ flux? O=C(Cn1nnc(N2CCCC2)n1)NN=Cc1ccc(Cl)cc1
false (0)

Strictly below 0.03 in log fold change Tl+ flux? O=S(=O)(Cc1nc(-c2ccc3c(c2)OCCO3)cs1)c1ccccn1
true (1)

Strictly below 0.03 in log fold change Tl+ flux? Cn1c(SCc2ccc(C(F)(F)F)cc2)nnc1C(F)(F)F
true (1)

Strictly below 0.03 in log fold change Tl+ flux? CC12CCC(c3c1nn(-c1ccccc1)c3C(F)(F)F)C2(C)C (centres undefined)
true (1)

Strictly below 0.03 in log fold change Tl+ flux? CCC(CO)NCCNC(CC)CO (centres undefined)
true (1)

Strictly below 0.03 in log fold change Tl+ flux? C#CC1(NC(=O)c2ccc(-c3ccc(CC)cc3)cc2)CCCCC1
false (0)

Strictly below 0.03 in log fold change Tl+ flux? CCSc1ccc(-c2noc(C(C)(C)C)n2)cn1
true (1)

Strictly below 0.03 in log fold change Tl+ flux? O=C(NC(=O)N1CCCCC1)c1cc(Br)cc(Br)c1
true (1)

Strictly below 0.03 in log fold change Tl+ flux? CN1C2CCC1CC(OC(c1ccccc1)c1ccccc1)C2 (centres undefined)
false (0)

Strictly below 0.03 in log fold change Tl+ flux? CCCCN1CCCC1CNC(=O)c1cc(C#N)c2ccccc2c1OC (centres undefined)
true (1)
